Give measured IC50 for each item. Keep answers brief.
# MEASURED_TARGET: NA of A/PR/8/34 (H1N1) (Influenza A virus)
# Sequence (P03468 whole entry): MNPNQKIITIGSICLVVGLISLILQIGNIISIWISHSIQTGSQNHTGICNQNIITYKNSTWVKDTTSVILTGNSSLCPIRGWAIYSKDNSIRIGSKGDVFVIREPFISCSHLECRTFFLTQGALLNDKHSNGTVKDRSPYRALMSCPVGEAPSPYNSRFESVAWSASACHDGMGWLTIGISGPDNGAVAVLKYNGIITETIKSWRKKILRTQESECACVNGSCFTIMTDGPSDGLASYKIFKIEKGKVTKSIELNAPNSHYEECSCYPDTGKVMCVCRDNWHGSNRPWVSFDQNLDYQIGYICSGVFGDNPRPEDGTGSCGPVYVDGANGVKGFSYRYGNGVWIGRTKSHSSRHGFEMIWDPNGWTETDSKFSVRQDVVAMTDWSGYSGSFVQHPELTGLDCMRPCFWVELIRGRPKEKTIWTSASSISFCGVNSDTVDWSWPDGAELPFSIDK
# PROCEDURE_TEXT: biochemical
Your answer should be a plain number; it is taken to be in µM.

Q. Could you tell me which IC50 is on file for CC1(C)O[C@@H]2Cc3c(O)cc(OC(=O)c4cc(O)c(O)c(O)c4)cc3O[C@@H]2c2cc(O)c(O)c(O)c21 [Compound 1, (2R,3R)-7-O-galloylplumbocatechin A] ?
A. 59.7

Q. Could you tell me which IC50 is on file for O=C(Oc1cc(O)c2c(c1)O[C@H](c1cc(O)c(O)c(O)c1)CC2)c1cc(O)c(O)c(O)c1 [Compound 2] ?
A. 83.4
